# Test system: G76 cells
# experiment_notes: Cell viability assay (CyQuant LDH)
# Assay type: cell-based, human
# test_parameters: 72 h, single agent, read-out: IC50 (cytotoxicity)
result_type: IC50 (µM)
The figure you give is taken to be in µM; do not add the unit.

Endpoint output: IC50 of `Cn1nnc2c(C(N)=O)ncn2c1=O` . Value?
1.31

---

# System: G76 cells
# experiment_notes: Apoptosis induction, Caspase-Glo 3/7
# Type: cell-based, human
# test_parameters: Homo sapiens, with letrozole 40 nM, read-out: EC50 for caspase 3/7 induction by temozolomide in the presence of letrozole (40 nM)
result_type: pEC50
Reminder that pEC50 is minus the log10 of a molar concentration.

Which pEC50 reading was recorded for the compound `Cn1nnc2c(C(N)=O)ncn2c1=O` ?
5.74

---

# Test system: G43 cells
# experiment_notes: Cell viability assay (CyQuant LDH)
# Format: cell-based, human
# test_parameters: 72 h, single agent, read-out: IC50 (cytotoxicity)
result_type: IC50 (µM)
Supply the numeric figure in µM, leaving out any unit text.

Given `Cn1nnc2c(C(N)=O)ncn2c1=O` , state its recorded IC50.
165

---

# System: G75 cells
# experiment_notes: Cell viability assay (CyQuant LDH)
# Assay type: cell-based
# test_parameters: Homo sapiens, 72 h, single agent, read-out: IC50 (cytotoxicity)
result_type: IC50 (µM)
Entry rule: numbers only, all in µM.

What value of IC50 has been recorded for this entry: `Cn1nnc2c(C(N)=O)ncn2c1=O`
107
